substrate: C1O[C@@H]1[C@H]1CO1; test: purified protein; conditions: 5 mM GSH, 0.10 M Tris-HCl pH 7.7, 37 °C, 1 h

| Protein | kcat / s⁻¹ |
| --- | --- |
| rat GST 5-5 (Rattus norvegicus) (protein) VLELYLDLLSQPCRAIYIFAKKNNIPFQMHTVELRKGEHLSDAFAQVNPMKKVPAMKDGGFTLCESVAILLYLAHKYKVPDHWYPQDLQARARVDEYLAWQHTTLRRSCLRTLWHKVMFPVFLGEQIRPEMLAATLADLDVNVQVLEDQFLQDKDFLVGPHISLADVVAITELMHPVGGGCPVFEGRPRLAAWYRRVEAAVGKDLFLEAHEVILKVRDCPPADPVIKQKLMPRVLTMIQ | 0.0308 |
| human GST T1-1 (Homo sapiens) (protein) GLELYLDLLSQPCRAVYIFAKKNDIPFELRIVDLIKGQHLSDAFAQVNPLKKVPALKDGDFTLTESVAILLYLTRKYKVPDYWYPQDLQARARVDEYLAWQHTTLRRSCLRALWHKVMFPVFLGEPVSPQTLAATLAELDVTLQLLEDKFLQNKAFLTGPHISLADLVAITELMHPVGAGCQVFEGRPKLATWRQRVEAAVGEDLFQEAHEVILKAKDFPPADPTIKQKLMPWVLAMIR | 0.0403 |
| human GST M1-1 (Homo sapiens) (protein) PMILGYWDIRGLAHAIRLLLEYTDSSYEEKKYTMGDAPDYDRSQWLNEKFKLGLDFPNLPYLIDGAHKITQSNAILCYIARKHNLCGETEEEKIRVDILENQTMDNHMQLGMICYNPEFEKLKPKYLEELPEKLKLYSEFLGKRPWFAGNKITFVDFLVYDVLDLHRIFEPKCLDAFPNLKDFISRFEGLEKISAYMKSSRFLPRPVFSKMAVWGNK | 0.0497 |
